Field: IC50. Provide a value for each of the compounds that follow.
target of assay: Protein disulfide-isomerase (Homo sapiens, UniProt P07237)
Sequence (P07237 whole entry): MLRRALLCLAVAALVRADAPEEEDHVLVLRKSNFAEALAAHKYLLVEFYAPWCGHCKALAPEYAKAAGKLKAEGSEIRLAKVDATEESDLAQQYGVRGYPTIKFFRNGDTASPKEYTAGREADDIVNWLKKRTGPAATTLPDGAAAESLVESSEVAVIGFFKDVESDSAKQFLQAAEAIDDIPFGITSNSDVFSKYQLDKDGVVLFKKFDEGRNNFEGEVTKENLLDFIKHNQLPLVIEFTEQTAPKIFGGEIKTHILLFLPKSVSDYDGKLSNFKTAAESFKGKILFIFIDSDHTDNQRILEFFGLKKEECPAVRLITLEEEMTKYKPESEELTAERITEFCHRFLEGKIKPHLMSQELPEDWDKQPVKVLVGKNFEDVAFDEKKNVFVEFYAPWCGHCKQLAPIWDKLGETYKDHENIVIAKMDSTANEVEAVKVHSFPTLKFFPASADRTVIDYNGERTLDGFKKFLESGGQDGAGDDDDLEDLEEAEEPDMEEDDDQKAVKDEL
procedure text: Inhibition of recombinant PDI (unknown origin) preincubated for 1 hrs followed by bovine insulin addition and measured after 80 mins by absorbance based reductase assay
Numeric only. Scale: nM

Give the measured IC50 of C=C(C(=O)Nc1ccc(C(F)(F)F)cc1)C(F)(F)F .
680

Look at this compound and give its reported IC50. C=C(C(=O)Nc1ccc(OCC)c(OC)c1)C(F)(F)F
1620

I am curious: what IC50 value has been reported for C=C(C(=O)Nc1ccc(N(CC)CC)cc1)C(F)(F)F ?
840

For the compound shown here, C#CC(=O)N(c1ccc(OC)c(OC)c1)C(C(=O)NCC(=O)OCC)c1cccs1 (configuration not stated) , give the reported IC50.
12400

Please give the measured IC50 for this compound: C=C(C(=O)Nc1ccc2c(c1)OCO2)C(F)(F)F
2910

Would you kindly share the measured IC50 for C=C(C(=O)Nc1ccc(C(C)(C)C)cc1)C(F)(F)F ?
870

Fill in: IC50 of C=CS(=O)(=O)Nc1cc(OC)c(OC)cc1C(=O)OC is ___
19100

I have this compound here, C=C(C(=O)Nc1ccc(-c2ccccc2)cc1)C(F)(F)F , and I need its recorded IC50.
1630

Any idea what its IC50 is? The compound is C=C(C(=O)Nc1ccc(Cc2ccccc2)cc1)C(F)(F)F
560
